Below, each entry is listed alongside its reported phosphorylation enrichment.
# Tested on: AncSZ;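 also: 11-residue human phosphosite peptides and single-mutation variants displayed on the E. coli surface, counted by deep sequencing, each peptide's frequency after selection divided by its frequency in the unselected input library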;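 also: frequency after pTyr selection over input frequency; kinase dosed for 20-30% of maximal phosphorylation in three min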
# assay.explanation: phosphorylation enrichment, bacterial display (enrichment ratio); higher = better substrate or ligand; peptides without Tyr show the background
Just the number, please, no unit attached.

The examples below pair each entry with its known result.
Look at this sequence and give its reported phosphorylation enrichment. VASSLYDILAR [GLB1_Y294]
1.02

Look at this sequence and give its reported phosphorylation enrichment. RPFFLYVAFHD [SGSH_Y174]
1.28

Look at this sequence and give its reported phosphorylation enrichment. YQASYYRRGDR [LTK_Y677_R673Q]
0.685

Continuing:
Look at this sequence and give its reported phosphorylation enrichment. PEVRRHVLPLN [RPE65_Y368_Y368H]
1.35

Look at this sequence and give its reported phosphorylation enrichment. DGKYSYLKVGH [GRM3_Y480_G475D]
0.442

Look at this sequence and give its reported phosphorylation enrichment. GRTNIYKNKKD [SLC26A3_Y520]
0.467

Look at this sequence and give its reported phosphorylation enrichment. PNAFIYVVQLP [L1CAM_Y420_A415P_YF]
1.39

Look at this sequence and give its reported phosphorylation enrichment. KTNVSYCGALD [CACNB4_Y103]
0.778

Look at this sequence and give its reported phosphorylation enrichment. CDFKKYGKGLR [ZNF445_Y433_Y428C_YF]
0.647

Look at this sequence and give its reported phosphorylation enrichment. QFNPEYVQQAS [LRRC7_Y1058_H1054Y_YF]
1.79

Look at this sequence and give its reported phosphorylation enrichment. PLDGESFTLQI [TP53_Y327_Y327S]
1.64

Look at this sequence and give its reported phosphorylation enrichment. DLDATYRPMYS [JUP_Y701_M697L]
0.699

Look at this sequence and give its reported phosphorylation enrichment. FPCSVYMPDEW [INSR_Y1011_V1012M]
1.19

Look at this sequence and give its reported phosphorylation enrichment. RSACTYLASHL [PLK3_Y615]
0.703
